- Tested on: 953936-095-R-J2-PDC spheroids with HUVEC/MSC, viability
- protocolText: Anticancer human tumor 953936-095-R-J2-PDC patient-derived cervical squamous cell carcinoma cell line growth inhibition [PI3K]
- experimentalConditions: curve of first compound; second compound 0.1 µM
Please respond with reported IC50 for every item in the list.

IN: Give me measured IC50, please, for this molecule: Cn1nccc1Nc1nccc(-c2ccn(C(CO)c3ccc(Cl)c(F)c3)c(=O)c2)n1 (configuration not stated) + COc1c(OCCCN2CCOCC2)ccc2c3n(c(=NC(=O)c4cnc(N)nc4)nc12)CCN3
OUT: < 0.0316 µM

IN: Dear colleague, please send me the reported IC50 for CCN1CCN(Cc2ccc(Nc3ncc(F)c(-c4cc(F)c5nc(C)n(C(C)C)c5c4)n3)nc2)CC1 + Cc1nc(NC(=O)N2CCCC2C(N)=O)sc1-c1ccnc(C(C)(C)C(F)(F)F)c1 when you can.
OUT: > 1 µM

IN: Give IC50 for the following molecule: CCN1CCN(Cc2ccc(Nc3ncc(F)c(-c4cc(F)c5nc(C)n(C(C)C)c5c4)n3)nc2)CC1 + CC(Nc1ncnc2nc[nH]c12)c1cc2cccc(Cl)c2c(=O)n1-c1ccccc1
OUT: > 1 µM

IN: Identify measured IC50 corresponding to CC1(C)CCC(Nc2ncc(C(F)(F)F)c(-c3c[nH]c4c(P(C)(C)=O)c(C#N)ccc34)n2)CN1 (configuration not stated) + COc1c(OCCCN2CCOCC2)ccc2c3n(c(=NC(=O)c4cnc(N)nc4)nc12)CCN3
OUT: < 0.0316 µM

IN: Return IC50 for the following molecule: CC(C)n1nc(-c2ccc3oc(N)nc3c2)c2c(N)ncnc21 + Cc1nc(NC(=O)N2CCCC2C(N)=O)sc1-c1ccnc(C(C)(C)C(F)(F)F)c1
OUT: 0.0187 µM

IN: Identify measured IC50 corresponding to Cn1ncnc1[C@H]1c2n[nH]c(=O)c3cc(F)cc(c23)N[C@@H]1c1ccc(F)cc1 + Cc1nc(NC(=O)N2CCCC2C(N)=O)sc1-c1ccnc(C(C)(C)C(F)(F)F)c1
OUT: > 0.1 µM

IN: Give the measured IC50 for CC(C)NCC(C(=O)N1CCN(c2ncnc3c2C(C)CC3O)CC1)c1ccc(Cl)cc1 (configuration not stated) + COc1c(OCCCN2CCOCC2)ccc2c3n(c(=NC(=O)c4cnc(N)nc4)nc12)CCN3
OUT: < 0.0316 µM

IN: State, in one line, measured IC50 of Cn1ncnc1[C@H]1c2n[nH]c(=O)c3cc(F)cc(c23)N[C@@H]1c1ccc(F)cc1 + COc1c(OCCCN2CCOCC2)ccc2c3n(c(=NC(=O)c4cnc(N)nc4)nc12)CCN3
OUT: < 0.000316 µM

IN: Provide only the value of recorded IC50 for CC(C)n1nc(-c2ccc3oc(N)nc3c2)c2c(N)ncnc21 + COc1c(OCCCN2CCOCC2)ccc2c3n(c(=NC(=O)c4cnc(N)nc4)nc12)CCN3
OUT: < 0.000316 µM

IN: Provide IC50 value for the following molecule: Cn1cnc2c(F)c(Nc3ccc(Br)cc3Cl)c(C(=O)NOCCO)cc21 + COc1c(OCCCN2CCOCC2)ccc2c3n(c(=NC(=O)c4cnc(N)nc4)nc12)CCN3
OUT: < 0.00949 µM

IN: Check the records and state IC50 for Cn1cnc2c(F)c(Nc3ccc(Br)cc3Cl)c(C(=O)NOCCO)cc21 + Cc1nc(NC(=O)N2CCCC2C(N)=O)sc1-c1ccnc(C(C)(C)C(F)(F)F)c1
OUT: 0.308 µM

IN: Note IC50 for the molecule shown: C#Cc1c(F)ccc2cc(O)cc(-c3ncc4c(N5CC6CCC(C5)N6)nc(OCC56CCCN5CC(F)C6)nc4c3F)c12 (configuration not stated) + CC(Nc1ccc2c(c1)OCCn1cc(N3C(=O)OCC3C(F)F)nc1-2)C(N)=O
OUT: 1.02 µM

IN: // Input: CC1(C)CCC(CN2CCN(c3ccc(C(=O)NS(=O)(=O)c4ccc(NCC5CCOCC5)c([N+](=O)[O-])c4)c(Oc4cnc5[nH]ccc5c4)c3)CC2)=C(c2ccc(Cl)cc2)C1 + Cc1nc(NC(=O)N2CCCC2C(N)=O)sc1-c1ccnc(C(C)(C)C(F)(F)F)c1 . Output its IC50 only.
OUT: 7.01 µM

IN: Give IC50 for CC1(C)CCC(CN2CCN(c3ccc(C(=O)NS(=O)(=O)c4ccc(NCC5CCOCC5)c([N+](=O)[O-])c4)c(Oc4cnc5[nH]ccc5c4)c3)CC2)=C(c2ccc(Cl)cc2)C1 + CC(Nc1ccc2c(c1)OCCn1cc(N3C(=O)OCC3C(F)F)nc1-2)C(N)=O
OUT: > 10 µM

IN: Quote IC50 reported for CCN1CCN(Cc2ccc(Nc3ncc(F)c(-c4cc(F)c5nc(C)n(C(C)C)c5c4)n3)nc2)CC1 + COc1c(OCCCN2CCOCC2)ccc2c3n(c(=NC(=O)c4cnc(N)nc4)nc12)CCN3 please.
OUT: < 0.00316 µM

IN: Tell me its IC50 given CC1(C)CCC(Nc2ncc(C(F)(F)F)c(-c3c[nH]c4c(P(C)(C)=O)c(C#N)ccc34)n2)CN1 (configuration not stated) + CC(Nc1ncnc2nc[nH]c12)c1cc2cccc(Cl)c2c(=O)n1-c1ccccc1 as the entry.
OUT: 3.37 µM

IN: Specify reported IC50 for the molecule shown: CC(C)NCC(C(=O)N1CCN(c2ncnc3c2C(C)CC3O)CC1)c1ccc(Cl)cc1 (configuration not stated) + CC(Nc1ccc2c(c1)OCCn1cc(N3C(=O)OCC3C(F)F)nc1-2)C(N)=O
OUT: 0.176 µM

----------
- Tested on: 953936-095-R-J2-PDC spheroids with HUVEC/MSC, viability
- protocolText: Anticancer human tumor 953936-095-R-J2-PDC cell line growth inhibition [PI3K];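 further: spheroids exposed to compounds for seven days before read-out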
- experimentalConditions: second compound 0.1 µM; first compound 0.1 µM; stronger effect = lower value
viability, T/C strictly under 90% means MET; at 90% or over means NOT MET.

IN: I'd appreciate it if you could check whether CC(Cn1ccc(-c2ccc(C#N)c(Cl)c2)n1)NC(=O)c1cc(C(C)O)[nH]n1 (stereo unspecified) + COc1c(OCCCN2CCOCC2)ccc2c3n(c(=NC(=O)c4cnc(N)nc4)nc12)CCN3 has viability, T/C smaller than 90%.
OUT: MET

IN: Please determine if CC1(C)CCC(Nc2ncc(C(F)(F)F)c(-c3c[nH]c4c(P(C)(C)=O)c(C#N)ccc34)n2)CN1 (stereo unspecified) + Cc1nc(NC(=O)N2CCCC2C(N)=O)sc1-c1ccnc(C(C)(C)C(F)(F)F)c1 is below 90% in terms of viability, T/C.
OUT: MET

IN: Quick check: viability, T/C of CC(=O)c1c(C)c2cnc(Nc3ccc(N4CCNCC4)cn3)nc2n(C2CCCC2)c1=O + COc1c(OCCCN2CCOCC2)ccc2c3n(c(=NC(=O)c4cnc(N)nc4)nc12)CCN3 under 90%?
OUT: MET

IN: Item CC(Cn1ccc(-c2ccc(C#N)c(Cl)c2)n1)NC(=O)c1cc(C(C)O)[nH]n1 (stereo unspecified) + CC(Nc1ncnc2nc[nH]c12)c1cc2cccc(Cl)c2c(=O)n1-c1ccccc1 : viability, T/C beneath 90%, strictly?
OUT: NOT MET

IN: Hello, is viability, T/C of the following compound strictly smaller than 90%? CC(C)NCC(C(=O)N1CCN(c2ncnc3c2C(C)CC3O)CC1)c1ccc(Cl)cc1 (stereo unspecified) + Cc1nc(NC(=O)N2CCCC2C(N)=O)sc1-c1ccnc(C(C)(C)C(F)(F)F)c1
OUT: MET

IN: Please indicate whether the reported viability, T/C of CC(C)NCC(C(=O)N1CCN(c2ncnc3c2C(C)CC3O)CC1)c1ccc(Cl)cc1 (stereo unspecified) + CC(Nc1ncnc2nc[nH]c12)c1cc2cccc(Cl)c2c(=O)n1-c1ccccc1 is strictly below 90%.
OUT: NOT MET

IN: Does this compound meet the criterion viability, T/C < 90%? CCCS(=O)(=O)Nc1ccc(F)c(C(=O)c2c[nH]c3ncc(-c4ccc(Cl)cc4)cc23)c1F + COc1c(OCCCN2CCOCC2)ccc2c3n(c(=NC(=O)c4cnc(N)nc4)nc12)CCN3
OUT: MET

IN: Is viability, T/C strictly under 90% for the entry C[C@@H](NC(=O)c1ncnc(N)c1Cl)c1ncc(C(=O)Nc2cc(C(F)(F)F)c(Cl)cn2)s1 + Cc1nc(NC(=O)N2CCCC2C(N)=O)sc1-c1ccnc(C(C)(C)C(F)(F)F)c1 ?
OUT: MET

IN: State whether 90% exceeds viability, T/C recorded for CCN1CCN(Cc2ccc(Nc3ncc(F)c(-c4cc(F)c5nc(C)n(C(C)C)c5c4)n3)nc2)CC1 + CC(Nc1ccc2c(c1)OCCn1cc(N3C(=O)OCC3C(F)F)nc1-2)C(N)=O .
OUT: MET

IN: Please state whether viability, T/C is below 90% for CC(C)NCC(C(=O)N1CCN(c2ncnc3c2C(C)CC3O)CC1)c1ccc(Cl)cc1 (stereo unspecified) + CC(Nc1ccc2c(c1)OCCn1cc(N3C(=O)OCC3C(F)F)nc1-2)C(N)=O
OUT: MET

Just for reference, PubChem BioAssay AID1963971 is where these values come from.
